Target: YFP-SHP-1 (human SHP-1 wt tagged with YFP) (human) (UniProt P29350)
Test: MST, peptide titrated into lysate of HEK 293T cells expressing YFP-SHP-1
Experimental readout: pKd
Numbers only, as −log10 of the molar value.

Prompt: I would be grateful if you could share the reported pKd for KEKLCYVALDF [WT β-actin derived peptide containing an ITIM motif (…)] .
Response: 4.40
